Experiment: PhoP regulon inhibitors, Salmonella typhi PhoP promoter GFP reporter, confirmatory (AID 1850);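 also: 0% = induced wells with vehicle and 100% = uninduced wells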
Conditions: fluorescence, 4 h, at 50 µM, hits give high values
Screen size: about 310,000 compounds; about 1,000 (0.32%) were called active. A selection follows. Potency and affinity values are given separately.
Test Readout: inhibition (%)
Please reply with the bare figure in % and do not write the unit itself.

For this compound ( Cc1cc(C)cc(NC(=O)N2CCC(NC(=O)c3ccco3)CC2)c1 ), measured inhibition is -4.45

For this compound ( Cc1cccc(C)c1NC(=O)CN(C)C(=O)c1ccc2nc[nH]c2c1 ), measured inhibition is 1.29

For this compound ( COc1cnc(-c2ccccn2)[nH]c1=O ), measured inhibition is -0.99

For this compound ( Nc1ccccc1SC(C[N+](=O)[O-])c1ccccc1 (stereo unspecified) ), measured inhibition is 15.4

For this compound ( Cc1ccc(C)n1-c1ccccc1N ), measured inhibition is 7.67

For this compound ( Cc1ccc(C(=O)O/N=C/C2=C(Cl)c3ccccc3CC2)cc1 ), measured inhibition is 3.65

For this compound ( CCc1ccc(-c2cc3c(=O)n(CC(=O)NCCCN4CCN(C)CC4)ncn3n2)cc1 ), measured inhibition is 5.21

For this compound ( Cc1ccc(C(=O)N/N=C\c2cccs2)cn1 ), measured inhibition is -3.85

For this compound ( CN(c1ccccc1)S(=O)(=O)c1ccc(NC(=O)c2ccc(F)cc2)cc1 ), measured inhibition is -3.04

For this compound ( CCCOCc1ccc(O)c2ncccc12 ), measured inhibition is 16.8

For this compound ( Cc1c(Cc2ccccc2)c(=O)oc2cc(OCC(=O)N[C@@H](Cc3ccccc3)C(=O)O)ccc12 ), measured inhibition is 1.41

For this compound ( CCCNC(=O)COc1coc(CN2CCN(c3cccc(Cl)c3)CC2)cc1=O ), measured inhibition is 9.58

For this compound ( CN1CCN(C(=O)/C(=C\c2ccccc2)c2ccccc2)CC1 ), measured inhibition is 3.28

For this compound ( Clc1ccccc1COc1ccc(/C=N/n2cnnc2)cc1 ), measured inhibition is -10.4

For this compound ( CC1(CC(=O)N/N=C/c2cc(Br)c(O)cc2O)OCCO1 ), measured inhibition is -8.89

For this compound ( O=C(O)CCc1ccc(-c2ccc(Br)cc2)n1-c1cccc(O)c1 ), measured inhibition is -2.3

For this compound ( COc1ccccc1C(=O)Nc1nnc(SCC(=O)Nc2ccc3c(c2)oc2ccccc23)s1 ), measured inhibition is -0.02

For this compound ( COc1ccc(CN2CN(C(C)C)CSC2=S)cc1 ), measured inhibition is 16.3

For this compound ( Oc1ccc2ccccc2c1CN1CCN(c2ccccc2)CC1 ), measured inhibition is 2.7

For this compound ( CC1=NN(c2nc(C)cc(C)n2)C(=O)C1CCC(C)C (stereo unspecified) ), measured inhibition is 2.35

For this compound ( Cc1ccc(-c2nn(C)c(=O)c3ccccc23)cc1S(=O)(=O)NCCO ), measured inhibition is -2.47

For this compound ( Cc1c2c(nc3ccccc13)CC(C)(C)CC2=O ), measured inhibition is -15.3

For this compound ( Cc1cc(C(=O)N/N=C/c2ccc([N+](=O)[O-])s2)n[nH]1 ), measured inhibition is 21.5

For this compound ( O=C(Nc1cccc(Cl)c1)c1ccc(=O)[nH]n1 ), measured inhibition is 12.7

For this compound ( COc1ccc(CNCCc2c(C)[nH]c3ccc(OC(F)(F)F)cc23)c(OC)c1 ), measured inhibition is -3.23

For this compound ( O=C(c1ccc(COc2ccccc2Cl)o1)N1N=C(C(F)F)CC1(O)C(F)F (stereo unspecified) ), measured inhibition is -0.36

The values you see were collected from PubChem BioAssay AID1850.
